Value source: PubChem BioAssay (NCI)

- System: NCI-H23 lung
- TEST DESCRIPTION: NCI-60 one-dose screen, 48 h
- CONDITIONS USED: 10 µM unless noted
This is part of a sample that, as a whole, favours compounds with a hit. Of some 83,000 tested, about 20% had one in any assay. Active and inactive are the calls of the source. How the source made its calls: active means growth percent below 10; inactive means the rest.
Bench note: report the call from active, inactive

Example results:
{"columns": ["COMPOUND", "ASSIGNED LABEL"],
 "data": [
  ["COC(=O)c1cc(C(=O)C(Br)Br)n2c1ccc1c3ccccc3ccc12", "inactive"],
  ["O=C(c1ccc(O)cc1)C1[C@H](c2ccc(Cl)cc2)[C@@H](c2ccccc2)NC12C(=O)Nc1ccc(Br)cc12 (some centres undefined)", "active"],
  ["Cc1cc(=O)oc2cc(OCC(O)CNN3C(=O)c4cccc5c(N6CCN(C)CC6)ccc(c45)C3=O)ccc12 (centres undefined)", "inactive"],
  ["COc1ccc(C(=O)C[n+]2cccc3c4ccccc4ccc32)cc1", "inactive"]
]}

Ask | GET /call?item= Cc1ccc2nc(SCc3ccccc3F)n(-c3ccccc3)c(=O)c2c1 returns the recorded outcome of this test.
Reply | inactive

Ask | GET /call?item= Cn1cc(-c2cc(N)n3nc(-c4c[nH]c5ccccc45)cc3n2)c2cc(Cl)ccc21 returns the recorded outcome of this test.
Reply | active

Ask | GET /call?item= CC(C)CN1C(=O)/C(=C\C(=O)c2cc3ccccc3oc2=O)c2ccccc21 returns the recorded outcome of this test.
Reply | inactive

---

- Tested on: M14 melanoma
- TEST DESCRIPTION: NCI-60 one-dose screen, 48 h
- CONDITIONS USED: 10 µM unless noted
- Description: Growth inhibition of the M14 human tumor cell line is measured as a screen for anti-cancer activity. Cells are grown in 96 well plates and exposed to the test compound for 48 hours. Compounds are tested at a single concentration, which is 10^-5 M for most compounds. The reported endpoint is percent growth (GI% or GIPRCNT), where numbers from 0 - 100% represent growth inhibition, and numbers from -100% - 0 represent cell death. For example, a value of 40 represents 60% growth inhibition. […]
About 83,000 compounds went through this panel and 20% of them were active in at least one assay; those are over-represented in the sample as a whole. Activity calls are given as the source filed them. The calls were made as follows: active = growth percent below 10; inactive = the rest.
Bench note: report the call from T for active, F for inactive

{"columns": ["SMILES STR", "ASSIGNED LABEL"],
 "data": [
  ["O=C(CSc1nc2c(c(=O)[nH]1)CCCC2)Nc1ccccc1C(=O)O", "F"]
]}

Could you now consider this next molecule?
Ask | GET /call?item= CCCCNc1ccc2c3c(cccc13)C(=O)N(c1cccc(-c3nn(-c4ccccc4)cc3-c3nc4ccccc4s3)c1)C2=O returns the recorded outcome of this test.
Reply | F

---

- Test system: SR leukemia
- TEST DESCRIPTION: NCI-60 one-dose screen, 48 h (100 = growth as untreated, 0 = no growth, -100 = all killed)
- CONDITIONS USED: 10 µM unless noted
Compounds without any hit were thinned out: in the full panel of roughly 83,000, 20% have a hit.
With a cut-off of 50%, any growth strictly below it is called Y; any growth meeting it or above is called N.

Example results:
{"columns": ["COMPOUND", "MEASUREMENT TARGET", "ASSIGNED LABEL"],
 "data": [
  ["Cn1cc(-c2cc(N)n3nc(-c4c[nH]c5ccccc45)cc3n2)c2cc(Cl)ccc21", "SR leukemia", "Y"],
  ["CCOc1ccc(-c2cc(-c3cc(C(C)C)c(O)cc3C)nn2-c2ccc(S(N)(=O)=O)cc2)cc1", "SR leukemia", "Y"],
  ["Oc1cncc(-c2ccc3ncnc(N4CCc5cc(F)c(Cl)cc54)c3c2)c1", "SR leukemia", "Y"]
]}

Ask | Say whether its growth is strictly beneath 50%. Entry: COc1ccc2[nH]c(=O)c(CSc3ccccc3Nc3nccc(-c4ccc(Cl)cc4)n3)cc2c1
Reply | Y

Ask | Say whether its growth is strictly beneath 50%. Entry: Fc1ccc(Nc2nnc(-c3c[nH]c4ccccc34)o2)cc1
Reply | N

Ask | Say whether its growth is strictly beneath 50%. Entry: Nc1nnc(CS(=O)(=O)c2ccccc2)s1
Reply | N

Ask | Say whether its growth is strictly beneath 50%. Entry: NS(=O)(=O)c1ccc(Nc2nc(SCC(=O)c3ccc(F)cc3)nc3ccccc23)cc1
Reply | Y

Ask | Say whether its growth is strictly beneath 50%. Entry: O=C(NNC(=S)NCCc1ccccc1)c1ccc(OCc2nc3ccc(Cl)cc3[nH]2)cc1
Reply | N

Ask | Say whether its growth is strictly beneath 50%. Entry: CCOc1ccccc1NC(=O)N/C(N)=N/c1nc2ccccc2s1
Reply | Y

Ask | Say whether its growth is strictly beneath 50%. Entry: CCCCNc1ccc2c3c(cccc13)C(=O)N(NCC(O)COc1ccc3c(C)cc(=O)oc3c1)C2=O (stereo not given)
Reply | N

Ask | Say whether its growth is strictly beneath 50%. Entry: CC1=C(C)C(=O)C(NCCN2CCOCC2)=C(Br)C1=O
Reply | N

Ask | Say whether its growth is strictly beneath 50%. Entry: Cc1nc(Nc2ccccn2)sc1C1=NNC(c2ccccc2F)C1 (stereo not given)
Reply | Y

Ask | Say whether its growth is strictly beneath 50%. Entry: N#C/C(=C/c1ccc(Cl)cc1)c1nnc(NC(=O)c2ccc(-n3c(=O)[nH]c4ccccc4c3=O)cc2)s1
Reply | N

Ask | Say whether its growth is strictly beneath 50%. Entry: COc1ccc(-c2nc3ccccc3n2CC(=O)N=Nc2c(O)[nH]c3ccc(Br)cc23)cc1
Reply | Y

Ask | Say whether its growth is strictly beneath 50%. Entry: COc1ccc(OC)c(Cn2cc(C#N)c(N)c2C(=O)c2ccc(Br)cc2)c1
Reply | Y

---

# growth per record follows
- System: OVCAR-8 ovarian
- TEST DESCRIPTION: NCI-60 one-dose screen, 48 h (100 = growth as untreated, 0 = no growth, -100 = all killed)
- CONDITIONS USED: 10 µM unless noted
This is part of a sample that, as a whole, favours compounds with a hit. Of some 83,000 tested, about 20% had one in any assay.
# unit: % | format: bare number

Known results for molecules:
{"columns": ["SMILES STR", "QUANTITY UNIT", "growth"],
 "data": [
  ["COc1ccc(NC(=O)Cn2c(/C=C/c3ccc([N+](=O)[O-])cc3)nc3ccccc3c2=O)cc1", "%", 45.8],
  ["COc1ccc(N=Nc2c(N)nn3c(-c4ccc(OC)c(OC)c4)ccnc23)cc1", "%", 78.8],
  ["O=C1Nc2ccc(F)cc2/C1=C/C(=O)c1cc2ccccc2oc1=O", "%", 105],
  ["COC(=O)c1c(C(=O)OC)c2c3ccccc3c3ccccc3n2c1C(=O)C(C)(C)C", "%", 90.5]
]}

Ask | OVCAR-8 ovarian / growth / O=C(Cc1c(-c2ccccc2[N+](=O)[O-])n(-c2ncnc3c2c(-c2ccccc2)c(-c2ccccc2)n3Cc2ccccc2)[nH]c1=O)c1ccc(Cl)c(Cl)c1 : value?
Reply | 25.5

---

- System: PC-3 prostate
- TEST DESCRIPTION: NCI-60 one-dose screen, 48 h (100 = growth as untreated, 0 = no growth, -100 = all killed)
- CONDITIONS USED: 10 µM unless noted
Compounds without any hit were thinned out: in the full panel of roughly 83,000, 20% have a hit.
Given measured growth, output fulfilled if it is greater than or equal to 50% and not fulfilled if not.

{"columns": ["MOLECULE", "ASSIGNED LABEL"],
 "data": [
  ["CN(C)c1nc(NCCNS(=O)(=O)c2ccc(C(=O)/C=C/c3ccc(C(F)(F)F)cc3)cc2)nc(N2CCOCC2)n1", "not fulfilled"],
  ["Nc1nnc(-c2cncc(Br)c2)c(-c2c[nH]c3ccc(Br)cc23)n1", "fulfilled"],
  ["Cc1cc(C(NC(=O)C2CC3(CC(Nc4cccc5c4C(=O)N(C4CCC(=O)NC4=O)C5=O)C3)C2)c2ccc3c(c2)OC(F)(F)O3)c(O)c2ncccc12 (centres undefined)", "not fulfilled"],
  ["CCOc1ccc2[nH]c(=O)c(C(c3nnnn3CC3CCCO3)N3CCN(Cc4ccccc4)CC3)cc2c1 (centres undefined)", "fulfilled"],
  ["COc1ccc(N=Nc2c(N)nn3c(-c4ccc(OC)c(OC)c4)ccnc23)cc1", "fulfilled"],
  ["Cc1ccc(Cl)cc1NC(=O)N/C(N)=N/c1nc2ccccc2s1", "not fulfilled"]
]}

Could you now consider this next molecule?
Ask | Answer whether growth of CC(C)(C)c1cc(-c2cc(-c3ccccc3)[nH]c(=O)c2C#N)cc(C(C)(C)C)c1 is greater than or equal to 50%.
Reply | fulfilled

---

# growth per record follows
- Test system: SK-OV-3 ovarian
- TEST DESCRIPTION: NCI-60 one-dose screen, 48 h (100 = growth as untreated, 0 = no growth, -100 = all killed)
- CONDITIONS USED: 10 µM unless noted
About 83,000 compounds went through this panel and 20% of them were active in at least one assay; those are over-represented in the sample as a whole.
# unit: % | format: bare number

{"columns": ["COMPOUND", "QUANTITY UNIT", "growth"],
 "data": [
  ["COc1ccc(N=Nc2c(N)nn3c(-c4ccc(OC)c(OC)c4)ccnc23)cc1", "%", 56.4]
]}

Ask | # query: growth of entry COc1c2c(cc3c1C(CCc1ccccc1)N(C)CC3)OCO2 (stereo not drawn)
Reply | -6.7

Ask | # query: growth of entry COc1ccc(SC2c3cc(OC)ccc3Oc3nc(N)c(C#N)c(N)c32)cc1 (stereo not drawn)
Reply | 113

Ask | # query: growth of entry COc1ccc(-c2cc(-c3cc(C(C)C)c(O)cc3C)nn2-c2ccc(S(N)(=O)=O)cc2)cc1
Reply | 60.5

Ask | # query: growth of entry Cc1ccc(C(C(=O)NC2CCCCC2)N(Cc2ccccc2Cl)C(=O)c2ccc(CN3CCOCC3)o2)o1 (stereo not drawn)
Reply | 112

Ask | # query: growth of entry CCOC(=O)/C(F)=C/C1CC1C(c1ccccc1)c1ccccc1 (stereo not drawn)
Reply | 148

Ask | # query: growth of entry CCc1ccc(SC2c3cc(OC)ccc3Oc3nc(N)c(C#N)c(N)c32)cc1 (stereo not drawn)
Reply | -23.3

Ask | # query: growth of entry COc1ccc(-c2cc(C(=O)Oc3ccc(C=O)cc3OC)nn2-c2ccc(S(C)(=O)=O)cc2)cc1
Reply | 122

Ask | # query: growth of entry Cn1cc(-c2cc3nc(-c4c[nH]c5ccccc45)cc(N)n3n2)c2ccccc21
Reply | 43.2
